- EXPERIMENTAL TARGET: α4β1 integrin (Homo sapiens (Human), UniProt P05556+P13612)
- Sequence (P13612 34-1032): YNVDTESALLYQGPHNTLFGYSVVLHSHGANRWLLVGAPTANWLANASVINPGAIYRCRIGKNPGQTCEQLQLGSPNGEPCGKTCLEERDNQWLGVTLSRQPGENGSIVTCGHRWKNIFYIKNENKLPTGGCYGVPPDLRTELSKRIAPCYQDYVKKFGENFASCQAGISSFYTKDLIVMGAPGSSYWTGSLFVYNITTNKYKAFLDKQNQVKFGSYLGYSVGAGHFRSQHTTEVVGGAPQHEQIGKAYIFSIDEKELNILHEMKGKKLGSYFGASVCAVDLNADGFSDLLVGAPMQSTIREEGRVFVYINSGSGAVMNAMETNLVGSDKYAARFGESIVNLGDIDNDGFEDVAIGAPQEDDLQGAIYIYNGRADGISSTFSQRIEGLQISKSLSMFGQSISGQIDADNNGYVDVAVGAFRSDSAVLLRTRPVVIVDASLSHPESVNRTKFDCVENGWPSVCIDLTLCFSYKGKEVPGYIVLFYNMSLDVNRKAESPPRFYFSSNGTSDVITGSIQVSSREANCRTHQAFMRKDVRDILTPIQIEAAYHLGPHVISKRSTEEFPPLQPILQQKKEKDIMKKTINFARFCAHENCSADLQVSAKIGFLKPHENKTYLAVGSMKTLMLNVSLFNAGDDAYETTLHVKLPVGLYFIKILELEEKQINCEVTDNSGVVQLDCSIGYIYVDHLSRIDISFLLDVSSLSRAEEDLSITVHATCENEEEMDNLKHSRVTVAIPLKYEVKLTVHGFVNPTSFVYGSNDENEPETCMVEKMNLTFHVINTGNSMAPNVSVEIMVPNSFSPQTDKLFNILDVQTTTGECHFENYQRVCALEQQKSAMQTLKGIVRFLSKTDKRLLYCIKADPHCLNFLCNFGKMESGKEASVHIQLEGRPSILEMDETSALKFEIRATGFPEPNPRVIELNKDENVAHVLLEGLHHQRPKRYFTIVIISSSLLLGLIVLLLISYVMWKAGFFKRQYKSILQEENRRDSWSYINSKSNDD
- Sequence (P05556 21-798): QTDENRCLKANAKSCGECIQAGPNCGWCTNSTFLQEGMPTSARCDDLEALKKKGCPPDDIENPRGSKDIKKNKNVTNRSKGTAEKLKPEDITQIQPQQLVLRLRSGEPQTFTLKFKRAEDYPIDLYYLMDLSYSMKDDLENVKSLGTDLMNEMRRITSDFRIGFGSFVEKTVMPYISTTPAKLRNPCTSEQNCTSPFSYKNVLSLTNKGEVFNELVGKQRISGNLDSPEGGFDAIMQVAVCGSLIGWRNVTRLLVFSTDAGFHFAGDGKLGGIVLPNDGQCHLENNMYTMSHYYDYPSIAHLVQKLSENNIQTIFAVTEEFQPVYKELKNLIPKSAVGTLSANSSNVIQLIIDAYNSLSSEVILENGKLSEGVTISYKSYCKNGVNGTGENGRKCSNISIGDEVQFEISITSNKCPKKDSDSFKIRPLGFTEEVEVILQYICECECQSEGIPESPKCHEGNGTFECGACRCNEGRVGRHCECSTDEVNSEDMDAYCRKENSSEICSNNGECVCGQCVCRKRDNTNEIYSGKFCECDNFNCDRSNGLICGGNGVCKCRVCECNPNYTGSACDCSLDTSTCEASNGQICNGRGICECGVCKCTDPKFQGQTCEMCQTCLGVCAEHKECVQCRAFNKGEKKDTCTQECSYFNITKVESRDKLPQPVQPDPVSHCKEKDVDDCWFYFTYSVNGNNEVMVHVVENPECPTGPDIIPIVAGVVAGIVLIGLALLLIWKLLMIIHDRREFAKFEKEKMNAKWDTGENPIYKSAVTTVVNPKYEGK
- METHOD SUMMARY: Integrin Adhesion Assay: Protocol 5 (VCAM-coated plate, RPMI-8866 cells with stable LOF mutation of the ITGB7 gene)
- Format: cell-based
- ASSAY CONTEXT: Protocol 5; RPMI-8866 cells with LOF mutation of ITGB7, VCAM; read-out: Mean IC50 α4β1 KO
pIC50: −log10 of the molar value.
EXPERIMENTAL ENDPOINT: pIC50

Report pIC50 for COc1ccc2ccccc2c1-c1cccc2c(C[C@H](NC(=O)C3(C(F)(F)F)CCN(CC(F)(F)F)CC3)C(=O)O)cccc12 [Compound 765]
< 6.00

Please give the documented pIC50 of Cn1c(=O)c(-c2cccc3c(C[C@H](NC(=O)C4(C(F)(F)F)CCN(CC(F)F)CC4)C(=O)O)cccc23)c(C(F)(F)F)c2cc(CN3CCC(F)(F)CC3)ccc21 [Compound 836]
7.00 to 8.00

Identify pIC50 associated with the compound COc1cc(CN2CCC(F)(F)CC2)cc(OC)c1-c1cccc2c(C[C@H](NC(=O)C3(C(F)(F)F)CCN(CC(F)(F)F)CC3)C(=O)O)cccc12 [Compound 795]
6.00 to 7.00

Entry COc1cnc(CN2CCC(C)C(F)(F)CC2)cc1-c1cccc2c(C[C@H](NC(=O)C3(C(F)(F)F)CCN(CC(F)(F)F)CC3)C(=O)O)cccc12 (stereo partly drawn) [Compound 843] needs its pIC50 filled in; supply it.
< 6.00

Write down pIC50 measured for item COc1cccc(CCN2CCC(c3ccccc3)CC2)c1-c1cccc2c(C[C@H](NC(=O)C3(C(F)(F)F)CCN(CC(F)F)CC3)C(=O)O)cccc12 [Compound 975]
6.00 to 7.00

Name the recorded pIC50 of the compound listed here: CC1CCN(Cc2cnc(-c3cccc4c(C[C@H](NC(=O)C5(C(F)(F)F)CCN(CC(F)(F)F)CC5)C(=O)O)cccc34)c3ccccc23)CCC1(F)F (stereo partly drawn) [Compound 875]
< 6.00

###

- EXPERIMENTAL TARGET: α4β7 integrin (Homo sapiens (Human), UniProt P13612+P26010)
- Sequence (P26010 20-798, one chain of several): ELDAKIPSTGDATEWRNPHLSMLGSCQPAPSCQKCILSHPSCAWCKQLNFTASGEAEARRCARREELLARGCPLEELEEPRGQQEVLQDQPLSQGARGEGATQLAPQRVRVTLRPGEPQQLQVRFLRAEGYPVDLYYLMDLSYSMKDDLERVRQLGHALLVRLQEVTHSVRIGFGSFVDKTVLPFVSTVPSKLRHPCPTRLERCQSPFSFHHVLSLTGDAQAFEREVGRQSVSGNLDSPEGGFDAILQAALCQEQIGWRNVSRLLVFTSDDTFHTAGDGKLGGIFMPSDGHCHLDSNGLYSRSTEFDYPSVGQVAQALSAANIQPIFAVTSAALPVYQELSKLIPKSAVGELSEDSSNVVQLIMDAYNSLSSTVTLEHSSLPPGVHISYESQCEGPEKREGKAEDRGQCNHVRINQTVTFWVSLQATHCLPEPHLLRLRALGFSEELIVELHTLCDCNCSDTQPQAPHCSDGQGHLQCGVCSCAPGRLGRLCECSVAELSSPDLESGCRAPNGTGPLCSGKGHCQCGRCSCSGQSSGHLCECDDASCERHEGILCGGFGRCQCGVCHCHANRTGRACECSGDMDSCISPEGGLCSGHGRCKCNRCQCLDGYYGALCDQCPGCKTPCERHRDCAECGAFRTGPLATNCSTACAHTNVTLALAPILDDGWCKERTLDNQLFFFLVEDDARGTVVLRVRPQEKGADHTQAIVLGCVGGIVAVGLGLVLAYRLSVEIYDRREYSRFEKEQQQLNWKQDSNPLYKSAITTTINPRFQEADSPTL
- METHOD SUMMARY: Integrin Adhesion Assay: Protocol 1 (MAdCAM-coated plate, RPMI-8866 cells, CellTiter GLO readout)
- Assay type: cell-based
- ASSAY CONTEXT: integrin adhesion assay; determined by at least one of the assays described (protocol not specified)
Can you tell me IC50 for the items I'm about to list?

Give IC50 for Cn1ccc(C(F)(F)F)c(-c2cccc3c(C[C@H](NC(=O)c4c(F)cc(N5CCOC[C@@H]5C(F)(F)F)cc4F)C(=O)O)cccc23)c1=O
10 to 100 nM

Hello, please tell me recorded IC50 for this one: Cn1ccc(=O)n(-c2cccc3c(C[C@H](NC(=O)c4c(F)cc(C#N)cc4F)C(=O)O)cccc23)c1=O
10 to 100 nM

Consider the compound Cn1ccc(C(F)(F)F)c(-c2ccnc3c(C[C@H](NC(=O)c4c(F)cccc4F)C(=O)O)cccc23)c1=O and give its recorded IC50.
100 to 1000 nM

###

I'd appreciate it if you could supply IC50 values for the items below.
- EXPERIMENTAL TARGET: α4β7 integrin (Homo sapiens (Human), UniProt P13612+P26010)
- METHOD SUMMARY: Integrin Adhesion Assay: Protocol 1 (MAdCAM-coated plate, RPMI-8866 cells, CellTiter GLO readout)
- Assay type: cell-based

State IC50 (α4β7 integrin (Homo sapiens (Human), UniProt P13612+P26010)) of Cn1c(=O)c(-c2cccc3c(C[C@H](NC(=O)[C@]4(C)CC[C@@H](N5CC(F)(F)C5)CC4)C(=O)O)cccc23)c(C(F)(F)F)c2ccccc21 .
100 to 1000 nM

Under α4β7 integrin (Homo sapiens (Human), UniProt P13612+P26010), report IC50 for CN(C)CC1CN(c2cc(F)c(C(=O)N[C@@H](Cc3cccc4c(-c5c(C(F)(F)F)c6ccccc6n(C)c5=O)cccc34)C(=O)O)c(F)c2)CCO1 (stereo partly drawn)
100 to 1000 nM

Given Cn1c(=O)c(-c2cccc3c(C[C@H](NC(=O)c4c(F)ccc(-c5ccncc5)c4F)C(=O)O)cccc23)c(C(F)(F)F)c2ccccc21 , report its IC50 on α4β7 integrin (Homo sapiens (Human), UniProt P13612+P26010).
100 to 1000 nM
